Here, each record is paired with measured remaining activity at 1 µM data.
- Test Target: human NK1 receptor (Homo sapiens)
- Construct: expressed in transfected cells; host or cells: 293T cells (RIKEN), transient transfection with pcDNA3.1(-) plasmid
- Test Method Notes: Inhibitory effect on human NK1 receptor (substance P-induced increase in intracellular calcium concentration)
- Assay type: cell-based
- Details: HEK-293T; substance P 0.1 μM; compound 1 μM; human NK1 receptor-expressing 293T cells; vehicle = 100%; read-out: SPRR (%) (Substance P-Response Remaining, intracellular calcium concentration)
Recorded Metric: remaining activity at 1 µM (%)

                                   compound             recorded_metric  value_measured
0  Cc1cc(F)ccc1[C@H]1CN(C2CCC(CC(=O)O)CC2)CC[C@@H]1C(=O)N(C)[C@@H](C)c1cc(C(F)(F)F)cc(C(F)(F)F)c1 (stereo partly drawn)  remaining activity at 1 µM             4.9
1  Cc1cc(F)ccc1[C@H]1CN(C[C@H]2CC[C@H](CC(=O)O)CC2)CC[C@@H]1C(=O)N(C)[C@@H](C)c1cc(C(F)(F)F)cc(C(F)(F)F)c1  remaining activity at 1 µM              14
2  Cc1cc(F)ccc1[C@H]1CN(CC23CC(C(=O)O)(C2)C3)CCN1C(=O)N(C)[C@H](C)c1cc(C(F)(F)F)cc(C(F)(F)F)c1  remaining activity at 1 µM              24
3  Cc1cc(F)ccc1[C@H]1CN(C[C@H]2CC[C@@H](CC(=O)O)CC2)CCN1C(=O)N(C)[C@H](C)c1cc(C(F)(F)F)cc(C(F)(F)F)c1  remaining activity at 1 µM             2.1
4  Cc1cc(F)ccc1[C@H]1CN(C2CCC(C(=O)O)CC2)CCN1C(=O)N(C)[C@H](C)c1cc(C(F)(F)F)cc(C(F)(F)F)c1 (stereo partly drawn)  remaining activity at 1 µM              14
5  Cc1cc(F)ccc1[C@H]1CN(C(=O)N2CCC(CC(=O)O)CC2)CCN1C(=O)N(C)[C@H](C)c1cc(C(F)(F)F)cc(C(F)(F)F)c1  remaining activity at 1 µM              30

* * *

- Test Target: human CYP3A4 (Homo sapiens, UniProt P08684)
- Construct: purchased BD Biosciences
- Sequence (P08684 whole entry): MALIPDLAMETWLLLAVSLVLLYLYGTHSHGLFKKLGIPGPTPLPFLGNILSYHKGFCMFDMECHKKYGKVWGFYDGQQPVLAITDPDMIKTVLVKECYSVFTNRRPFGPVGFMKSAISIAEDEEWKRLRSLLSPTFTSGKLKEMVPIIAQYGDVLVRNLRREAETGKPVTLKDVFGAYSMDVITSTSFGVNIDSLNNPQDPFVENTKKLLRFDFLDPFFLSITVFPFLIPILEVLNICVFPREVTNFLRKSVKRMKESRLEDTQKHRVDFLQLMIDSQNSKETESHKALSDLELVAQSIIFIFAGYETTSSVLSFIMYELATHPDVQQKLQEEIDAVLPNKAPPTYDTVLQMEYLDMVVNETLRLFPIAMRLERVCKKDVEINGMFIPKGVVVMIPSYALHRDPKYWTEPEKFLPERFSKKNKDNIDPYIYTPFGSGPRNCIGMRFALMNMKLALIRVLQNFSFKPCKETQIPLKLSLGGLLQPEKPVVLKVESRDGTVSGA
- Test Method Notes: Inhibitory effect on CYP3A4 (Luciferin-IPA)
- Assay type: in vitro ADME
- Details: test compound 10 μM, 30-minutes pre-incubation, Luciferin-IPA 3 μM
A collection of molecules and their measured Preincubation (30 min) (%) (enzyme activities relative to group without test compound)
Recorded Metric: Preincubation (30 min) (%) (enzyme activities relative to group without test compound)

Molecule	Result Unit	Value Measured
C[C@@H](O[C@H]1OCCN(Cc2n[nH]c(=O)[nH]2)[C@H]1c1ccc(F)cc1)c1cc(C(F)(F)F)cc(C(F)(F)F)c1 [Aprepitant, aprepitant, reference compound]	%	1.3
Cc1cc(F)ccc1[C@H]1CN(C[C@H]2CC[C@H](CC(=O)O)CC2)CC[C@@H]1C(=O)N(C)[C@@H](C)c1cc(C(F)(F)F)cc(C(F)(F)F)c1	%	15
Cc1cc(F)ccc1[C@H]1CN(C[C@H]2CC[C@@H](CC(=O)O)CC2)CC[C@@H]1C(=O)N(C)[C@@H](C)c1cc(C(F)(F)F)cc(C(F)(F)F)c1	%	18
Cc1cc(F)ccc1[C@H]1CN(C[C@H]2CC[C@@H](CC(=O)O)CC2)CCN1C(=O)N(C)[C@H](C)c1cc(C(F)(F)F)cc(C(F)(F)F)c1	%	18
Cc1cc(F)ccc1[C@H]1CN(C[C@H]2CC[C@H](CC(=O)O)CC2)CCN1C(=O)N(C)[C@H](C)c1cc(C(F)(F)F)cc(C(F)(F)F)c1	%	21

* * *

Measured remaining activity at 1 µM by item
- Test Target: human NK1 receptor (Homo sapiens)
- Construct: expressed in transfected cells; host or cells: 293T cells (RIKEN), transient transfection with pcDNA3.1(-) plasmid
- Test Method Notes: Inhibitory effect on human NK1 receptor (substance P-induced increase in intracellular calcium concentration)
- Assay type: cell-based
- Details: HEK-293T; substance P 0.1 μM; compound 1 μM; human NK1 receptor-expressing 293T cells; vehicle = 100%; read-out: SPRR (%) (Substance P-Response Remaining, intracellular calcium concentration)
Recorded Metric: remaining activity at 1 µM (%)

                                   compound  value_measured
0  Cc1cc(F)ccc1[C@H]1CN(C(=O)[C@H]2CC[C@H](CC(=O)O)CC2)CCN1C(=O)N(C)[C@H](C)c1cc(C(F)(F)F)cc(C(F)(F)F)c1              50
1  Cc1cc(F)ccc1[C@H]1CN(C[C@H]2CC[C@@H](C(=O)O)CC2)CCN1C(=O)N(C)[C@H](C)c1cc(C(F)(F)F)cc(C(F)(F)F)c1             6.6
2  Cc1cc(F)ccc1[C@H]1CN(Cc2ccc(CC(=O)O)cc2)CCN1C(=O)N(C)[C@H](C)c1cc(C(F)(F)F)cc(C(F)(F)F)c1              38
3  Cc1cc(F)ccc1[C@H]1CN(C[C@H]2CC[C@H](CC(=O)O)CC2)CCN1C(=O)N(C)[C@H](C)c1cc(C(F)(F)F)cc(C(F)(F)F)c1             8.9
4  Cc1cc(F)ccc1[C@H]1CN(C[C@H]2CC[C@@H](CC(=O)O)CC2)CC[C@@H]1C(=O)N(C)[C@@H](C)c1cc(C(F)(F)F)cc(C(F)(F)F)c1             4.1
5  Cc1cc(F)ccc1[C@H]1CN(C[C@H]2CC[C@H](C(=O)O)CC2)CCN1C(=O)N(C)[C@H](C)c1cc(C(F)(F)F)cc(C(F)(F)F)c1              14
6  Cc1cc(F)ccc1[C@H]1CN(C(=O)[C@H]2CC[C@@H](CC(=O)O)CC2)CCN1C(=O)N(C)[C@H](C)c1cc(C(F)(F)F)cc(C(F)(F)F)c1              25
7  Cc1cc(F)ccc1[C@H]1CN(C2CCC(CC(=O)O)CC2)CCN1C(=O)N(C)[C@H](C)c1cc(C(F)(F)F)cc(C(F)(F)F)c1 (some centres unmarked)              15

* * *

- Test Target: human NK1 receptor (Homo sapiens, UniProt P25103)
- Construct: expressed in transfected cells; host or cells: 293T cells (RIKEN), transient transfection with pcDNA3.1(-) plasmid
- Sequence (P25103 whole entry): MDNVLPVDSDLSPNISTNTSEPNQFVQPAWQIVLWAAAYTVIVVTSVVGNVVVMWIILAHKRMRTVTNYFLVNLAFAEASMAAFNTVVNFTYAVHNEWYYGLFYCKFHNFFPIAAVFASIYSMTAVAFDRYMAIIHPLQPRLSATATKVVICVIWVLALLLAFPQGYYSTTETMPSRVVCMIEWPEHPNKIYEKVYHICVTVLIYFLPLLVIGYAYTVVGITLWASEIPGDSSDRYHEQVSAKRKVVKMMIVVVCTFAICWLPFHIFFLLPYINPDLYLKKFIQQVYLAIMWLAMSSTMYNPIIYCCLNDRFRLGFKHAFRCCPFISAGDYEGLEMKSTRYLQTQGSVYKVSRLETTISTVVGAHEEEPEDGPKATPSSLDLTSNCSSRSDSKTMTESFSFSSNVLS
- Test Method Notes: Affinity for human NK1 receptor (125I-substance P receptor binding test, membrane fraction)
- Details: membrane fraction of human NK1 receptor-expressing 293T cells, room temperature 60 minutes, read-out: pIC50 (inverse logarithm of the concentration required for 50% inhibition of 125I-substance P binding) (converted)
I'd appreciate it if you marked entries YES when IC50 is lower than 1 nM and NO when it is not.

Molecule	Class
Cc1cc(F)ccc1[C@H]1CN(C[C@H]2CC[C@H](CC(=O)O)CC2)CC[C@@H]1C(=O)N(C)[C@@H](C)c1cc(C(F)(F)F)cc(C(F)(F)F)c1 [Example 14]	NO
Cc1cc(F)ccc1[C@H]1CN(C[C@H]2CC[C@H](C(=O)O)CC2)CCN1C(=O)N(C)[C@H](C)c1cc(C(F)(F)F)cc(C(F)(F)F)c1 [Example 8]	NO
Cc1cc(F)ccc1[C@H]1CN(C[C@H]2CC[C@@H](CC(=O)O)CC2)CCN1C(=O)N(C)[C@H](C)c1cc(C(F)(F)F)cc(C(F)(F)F)c1 [Example 4]	YES
Cc1cc(F)ccc1[C@H]1CN(C(=O)N2CCC(CC(=O)O)CC2)CCN1C(=O)N(C)[C@H](C)c1cc(C(F)(F)F)cc(C(F)(F)F)c1 [Example 10]	NO
Cc1cc(F)ccc1[C@H]1CN(C2CCC(CC(=O)O)CC2)CC[C@@H]1C(=O)N(C)[C@@H](C)c1cc(C(F)(F)F)cc(C(F)(F)F)c1 (some centres unmarked) [Example 12]	YES
Cc1cc(F)ccc1[C@H]1CN(CC23CC(C(=O)O)(C2)C3)CCN1C(=O)N(C)[C@H](C)c1cc(C(F)(F)F)cc(C(F)(F)F)c1 [Example 11]	NO
Cc1cc(F)ccc1[C@H]1CN(C(=O)[C@H]2CC[C@H](CC(=O)O)CC2)CCN1C(=O)N(C)[C@H](C)c1cc(C(F)(F)F)cc(C(F)(F)F)c1 [Example 3]	NO
Cc1cc(F)ccc1[C@H]1CN(C(=O)[C@H]2CC[C@@H](CC(=O)O)CC2)CCN1C(=O)N(C)[C@H](C)c1cc(C(F)(F)F)cc(C(F)(F)F)c1 [Example 2]	NO

* * *

- Test Target: human NK1 receptor (Homo sapiens)
- Construct: expressed in transfected cells; host or cells: 293T cells (RIKEN), transient transfection with pcDNA3.1(-) plasmid
- Test Method Notes: Affinity for human NK1 receptor (125I-substance P receptor binding test, membrane fraction)
- Details: membrane fraction of human NK1 receptor-expressing 293T cells, room temperature 60 minutes, read-out: pIC50 (inverse logarithm of the concentration required for 50% inhibition of 125I-substance P binding) (converted)
Please use True for IC50 under 2 nM and False for everything else, ties included.

Compound	Test Target	Class
Cc1cc(F)ccc1[C@H]1CN(Cc2ccc(CC(=O)O)cc2)CCN1C(=O)N(C)[C@H](C)c1cc(C(F)(F)F)cc(C(F)(F)F)c1 [Example 9]	human NK1 receptor (Homo sapiens)	True
Cc1cc(F)ccc1[C@H]1CN(C2CCC(C(=O)O)CC2)CCN1C(=O)N(C)[C@H](C)c1cc(C(F)(F)F)cc(C(F)(F)F)c1 (stereo partly drawn) [Example 6]	human NK1 receptor (Homo sapiens)	True
Cc1cc(F)ccc1[C@H]1CN(C2CCC(CC(=O)O)CC2)CCN1C(=O)N(C)[C@H](C)c1cc(C(F)(F)F)cc(C(F)(F)F)c1 (stereo partly drawn) [Example 1]	human NK1 receptor (Homo sapiens)	False
Cc1cc(F)ccc1[C@H]1CN(C[C@H]2CC[C@H](CC(=O)O)CC2)CCN1C(=O)N(C)[C@H](C)c1cc(C(F)(F)F)cc(C(F)(F)F)c1 [Example 5]	human NK1 receptor (Homo sapiens)	True
Cc1cc(F)ccc1[C@H]1CN(C[C@H]2CC[C@@H](CC(=O)O)CC2)CC[C@@H]1C(=O)N(C)[C@@H](C)c1cc(C(F)(F)F)cc(C(F)(F)F)c1 [Example 13]	human NK1 receptor (Homo sapiens)	True

The reported numbers originate from patent US10399949B2.
